Test: Cell cytotoxic test (MTT) on Huh-luc/neo-ET cells
Format: cell-based
Details: human, concentration for 50% cell kill, two-day culture
Property label: CC50 at 2 days (µM)

Compound	Property label	Unit	Value comparator	Recorded measurement
CC(=O)OCC1OC(OC2COC(OC3COC(OC4C(OC5C(CO)OC(OC6CCC7(C)C(CCC8(C)C7CC=C7C9CC(C)(C)CCC9(C(=O)OC9OC(CO)C(O)C(O)C9OC9OCC(O)C(OC%10OCC(O)(CO)C%10O)C9O)C(O)CC78C)C6(C)C)C(O)C5O)OCC(O)C4O)C(O)C3O)C(O)C2O)C(OC(=O)/C=C/c2ccccc2)C(O)C1OC(C)=O (stereo not drawn)	CC50 at 2 days	µM	=	25.2
COc1ccc(/C=C/C(=O)OC2C(C)OC(OC(=O)C34CCC(C)(C)CC3C3=CCC5[C@@]6(C)CC[C@H](OC7OC(C(=O)O)C(O)C(O)C7OC7OC(CO)C(O)C(O)C7O)[C@@](C)(C=O)C6CC[C@@]5(C)[C@]3(C)C[C@H]4O)C(OC3OC(C)C(O)C(O)C3OC3OCC(O)C(O)C3O)C2O)cc1 (stereo partly drawn)	CC50 at 2 days	µM	>	100
CC(=O)NC1C(O[C@H]2CC[C@@]3(C)C(CC[C@]4(C)C3CC=C3C5CC(C)(C)CC[C@]5(C(=O)OC5OC(COC(=O)/C=C/c6ccccc6)C(OC6OC(CO)C(O)C(O)C6OC(C)=O)C(O)C5OC5OCC(OC6OCC(O)(CO)C6O)C(O)C5O)CC[C@]34C)C2(C)C)OC(COC2OCC(O)C(O)C2OC2OCC(O)C(O)C2O)C(OC2OC(CO)C(O)C(O)C2O)C1O (stereo partly drawn)	CC50 at 2 days	µM	=	14.1

---

// values below are reported inhibition at 10 µM
Tested on: HCV replicon system (Huh-luc/neo-ET cell carrying I389luc-ubi-NS3-3'/ET)
Assay: Inhibition of the HCV replication by determining the firefly luciferase activity (HCV replicon system)
Format: cell-based, Hepatitis C virus
Conditions: Hepatitis C virus, Huh-luc/neo-ET, 48 h; compound concentration 10 μM; 2 days co-culture; luciferase activity; read-out: Inhibition rate (%)

Compound	inhibition at 10 µM / %
C=CC(C)(O)CC/C=C(\C)C(=O)O[C@H]1[C@H](O)[C@@H](CO)OC(OC(=O)[C@]23CCC(C)(C)CC2C2=CCC4[C@@]5(C)CC[C@H](OC6O[C@H](COC7OC[C@H](O)[C@H](O)[C@H]7OC7OC[C@@H](O)[C@H](O)[C@H]7O)[C@@H](O)[C@H](O)[C@H]6O)C(C)(C)C5CC[C@@]4(C)[C@]2(C)CC3)[C@@H]1OC1OC(C)C(OC2OC[C@@H](O)[C@H](OC3OC[C@@H](O)[C@H](O)[C@H]3O)[C@H]2O)C(O)C1O (stereo partly drawn) [A25]	96.5
CC1(C)CC[C@]2(C(=O)O)CC[C@]3(C)C(=CCC4[C@@]5(C)C[C@@H](O)[C@H](O)[C@@](C)(COC(=O)/C=C/c6ccc(O)cc6)C5CC[C@]43C)C2C1 (stereo partly drawn) [A08]	0.4
C=CC(C)(O)CC/C=C(\C)C(=O)OC1C(O)C(CO)OC(OC(=O)C23CCC(C)(C)CC2C2=CCC4C5(C)CCC(OC6OC(COC7OCC(O)C(O)C7OC7OCC(O)C(O)C7O)C(O)C(O)C6O)C(C)(C)C5CCC4(C)C2(C)CC3O)C1OC1OC(CO)C(OC2OCC(O)C(OC3OCC(O)C(O)C3O)C2O)C(O)C1O (stereo not drawn) [A26]	95.6
C=CC(C)(CC/C=C(\CO)C(=O)OC1CC2(C(=O)OC3OCC(OC4CC(CO)C(O)C(OC5OC(CO)C(OC6OC(C)C(O)C(O)C6O)C(O)C5O)C4O)C(O)C3O)CCC3(C)C(=CCC4C5(C)CCC(OC6OC(CO)C(OC7OC(CO)C(O)C(OC8OCC(O)C(O)C8O)C7O)C(O)C6O)C(C)(C)C5CCC43C)C2CC1(C)C)OC1OC(C)C(O)C(O)C1O (stereo not drawn) [A27]	96.9
C/C=C(\C)C(=O)OC1C(OC(C)=O)C2(C(=O)O)C(CC1(C)C)C1=CCC3C4(C)CCC(OC5OC(CO)C(O)C(OC6OC(CO)C(O)C(OC7OC(C)C(O)C(O)C7O)C6O)C5O)C(C)(C)C4CCC3(C)C1(C)C(OC(C)=O)C2OC(C)=O (stereo not drawn) [A18]	45
CC(=O)OC1C(OC(C)=O)[C@]2(CO)C(OC(C)=O)C[C@]3(C)C(=CCC4[C@@]5(C)CC[C@H](OC6OC(C(C)=O)C(O)C(OC7OC(CO)C(O)C(O)C7O)C6O)C(C)(C)C5CC[C@]43C)C2CC1(C)C (stereo partly drawn) [A07]	10.3

---

Assay: Cell cytotoxic test (MTT) on Huh-luc/neo-ET cells
Format: cell-based
Details: human, concentration for 50% cell kill, two-day culture

Compound	Value comparator	CC50 at 2 days, µM
CC(=O)OC1C(OC(=O)C(C)C)C2(CO)C(CC1(C)C)C1=CCC3C4(C)CCC(OC5OC(C)C(OC6OC(C(=O)O)C(O)C(OC7OC(CO)C(O)C(O)C7OC7OC(CO)C(O)C(O)C7O)C6O)C(O)C5O)C(C)(C)C4CCC3(C)C1(C)C(O)C2O (stereo not shown) [A13]	=	100
C/C=C(/C)C(=O)OC1C(O)C(C)(C)CC2C3=CCC4C5(C)CCC(OC6OC(C(=O)O)C(O)C(OC7OCC(O)C(O)C7O)C6OC6OC(CO)C(O)C(O)C6O)C(C)(C)C5CCC4(C)C3(C)C(OC(C)=O)C(O)C21CO (stereo not shown) [A11]	=	29.8
C/C=C(/C)C(=O)OC1CC(C)(C)CC2C3=CCC4C5(C)CCC(OC6OC(C)C(OC7OC(C(=O)O)C(O)C(OC8OC(CO)C(O)C(O)C8OC8OC(CO)C(O)C(O)C8O)C7O)C(O)C6O)C(C)(C)C5CCC4(C)C3(C)C(OC(=O)/C=C/C=C/C=C/CCC)C(OC(C)=O)C12CO (stereo not shown) [A15]	>	100
CC(=O)OC1C(OC(C)=O)[C@]2(CO)C(OC(C)=O)C[C@]3(C)C(=CCC4[C@@]5(C)CC[C@H](OC6OC(C(C)=O)C(O)C(OC7OC(CO)C(O)C(O)C7O)C6O)C(C)(C)C5CC[C@]43C)C2CC1(C)C (stereo partly shown) [A07]	>	100
C[C@@H]1OC(O[C@H]2C(OC(=O)[C@]34CCC(C)(C)C[C@H]3C3=CC[C@@H]5[C@@]6(C)C[C@H](O)[C@@H]7OC8O[C@H](CO)[C@@H](O)[C@H](O)[C@H]8OC8OC[C@H](O)[C@H](O)[C@H]8OC(=O)CC(C)(O)CC(=O)OC[C@H]7[C@@H]6CC[C@@]5(C)[C@]3(C)CC4)OC[C@H](O)[C@@H]2O)[C@H](O)[C@H](OC2OC[C@@H](O)[C@H](O)[C@H]2O)[C@H]1O (stereo partly shown) [A02]	=	15.2
C=CC(C)(CC/C=C(\CO)C(=O)OC1CC2(C(=O)OC3OCC(OC4CC(CO)C(O)C(OC5OC(CO)C(OC6OC(C)C(O)C(O)C6O)C(O)C5O)C4O)C(O)C3O)CCC3(C)C(=CCC4C5(C)CCC(OC6OC(CO)C(OC7OC(CO)C(O)C(OC8OCC(O)C(O)C8O)C7O)C(O)C6O)C(C)(C)C5CCC43C)C2CC1(C)C)OC1OC(C)C(O)C(O)C1O (stereo not shown) [A27]	=	76.7
C=CC(C)(O)CC/C=C(\C)C(=O)OCC1OC(OC(=O)C23CCC4(C)C(=CCC5C6(C)CCC(OC7OC(COC8OC(CO)C(O)C(O)C8O)C(OC8OCC(O)C(O)C8OC8OCC(O)C(O)C8O)C(O)C7NC(C)=O)C(C)(C)C6CCC54C)C2CC(C)(C)C(O)C3O)C(OC2OCC(OC3OCC(O)(CO)C3O)C(O)C2O)C(O)C1OC1OC(CO)C(O)C(O)C1O (stereo not shown) [A16]	=	45.3

---

Assay: Cell cytotoxic test (MTT) on Huh-luc/neo-ET cells
Format: cell-based
Settings: human, concentration for 50% cell kill, two-day culture

Compound	Value comparator	CC50 at 2 days (µM)
CC1(C)CC[C@]2(C(=O)O)CCC3=C([C@@H](CCl)C[C@@H]4[C@@]5(C)C[C@H](O)[C@H](O)[C@@](C)(C(=O)O)[C@@H]5CC[C@@]34C)[C@@H]2C1	>	100
C=CC(C)(O)CC/C=C(\C)C(=O)OCC1OC(OC(=O)C23CCC4(C)C(=CCC5C6(C)CCC(OC7OC(COC8OC(CO)C(O)C(O)C8O)C(OC8OCC(O)C(O)C8OC8OCC(O)C(O)C8O)C(O)C7NC(C)=O)C(C)(C)C6CCC54C)C2CC(C)(C)C(O)C3O)C(OC2OCC(OC3OCC(O)(CO)C3O)C(O)C2O)C(O)C1OC1OC(CO)C(OC(C)=O)C(O)C1O (stereo not shown)	=	18.1
C=CC(C)(O)CC/C=C(\C)C(=O)OC1C(O)C(CO)OC(OC(=O)C23CCC(C)(C)CC2C2=CCC4C5(C)CCC(OC6OC(COC7OCC(OC(C)=O)C(O)C7OC7OC(COC(C)=O)C(O)C(O)C7O)C(O)C(O)C6OC6OCC(O)C(O)C6O)C(C)(C)C5CCC4(C)C2(C)C(O)C3O)C1OC1OCC(OC2OCC(O)C(OC3OCC(O)C(O)C3O)C2O)C(O)C1O (stereo not shown)	=	50.2
CC1(C)CC[C@]2(C(=O)O)CC[C@]3(C)C(=CCC4[C@@]5(C)C[C@@H](O)[C@H](O)[C@@](C)(COC(=O)/C=C/c6ccc(O)cc6)C5CC[C@]43C)C2C1 (stereo partly shown)	=	72
